Could you please report measured normalized RNA/DNA level without ligand (log10) for the items listed next?
B1: library; a variant is named by its letters at N, in order (parent)
chain: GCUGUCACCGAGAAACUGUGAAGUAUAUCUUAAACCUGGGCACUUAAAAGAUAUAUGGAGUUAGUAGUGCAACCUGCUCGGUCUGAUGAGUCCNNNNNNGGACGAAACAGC

# Variants of: B1
# TEST: normalized RNA/DNA level without ligand (relative to sTRSVctl = 100) (log10 (% of sTRSVctl)); HEK293T; ligand: cyclic di-GMP (c-di-GMP-II aptamer); higher = less ribozyme self-cleavage, higher mRNA level
# ASSAY CONDITIONS: reporter: mCherry (pCS4076), ligand present: no
Simply state the number, no unit and no words.

Recorded normalized RNA/DNA level without ligand (log10) of `ACAAGU` , please.
1.42

Recorded normalized RNA/DNA level without ligand (log10) of `AUCAUC` , please.
1.85

Recorded normalized RNA/DNA level without ligand (log10) of `GCACGU` , please.
1.49

Recorded normalized RNA/DNA level without ligand (log10) of `ACGUUG` , please.
1.52

This collection of values is drawn from the supplement of paper PMC6757056.
